Below, each entry is listed alongside its reported reverse-splicing fitness.
B1: Azoarcus group I ribozyme (parent)
chain: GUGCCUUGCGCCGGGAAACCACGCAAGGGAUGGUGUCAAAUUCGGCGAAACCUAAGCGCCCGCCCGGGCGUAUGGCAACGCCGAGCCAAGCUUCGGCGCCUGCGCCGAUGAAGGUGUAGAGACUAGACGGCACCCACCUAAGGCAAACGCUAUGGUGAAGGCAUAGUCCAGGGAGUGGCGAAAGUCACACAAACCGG

Variants of: B1
Test: reverse-splicing fitness (ratio to wild type); higher = more active; in vitro selection; Mg2+ level not given
// no unit string in output, number only

// known answers, use as guide
Variant id	reverse-splicing fitness
C82G A111G A120G A145C C150A C169U U176A	0.021
C82A A111C A120C A145U C169G U176A	0.0151
C82G A111G A145U C150A U176C	0.0339

reverse-splicing fitness reading for C82A A111G A145C C150A C169G U176A : 0.0291

reverse-splicing fitness reading for A111G A120G A145U C150G C169G : 0.0297

Value source: the RNAGym collection of RNA variant scans (doi:10.1093/molbev/msab373)
